Task for the reader: assign each of the following compounds its reported IC50.
// units = µM; emit number, no label

State measured IC50 of the compound "CCCOC[C@H]1C(=O)N[C@@H]([C@@H](C)CC)C(=O)N(C)CC(=O)N(C)[C@H]2C/C=C\CCN(C2=O)[C@@H](CC2CCC(F)(F)CC2)C(=O)N(C)CC(=O)N[C@@H](CCc2cc(F)c(C(F)(F)F)c(F)c2)C(=O)N2C[C@H](OCC)C[C@H]2C(=O)NC2(CC(C)(C)C2)C(=O)N(C)[C@@H](C(CC)CC)C(=O)N(C)[C@H](C(=O)N(C)C)CC(=O)N1C" with human lung cancer strain NCI-H441. 0.0423

State measured IC50 of the compound "CCO[C@@H]1C[C@H]2C(=O)NC3(CCC3)C(=O)N(C)[C@@H](C3CCCC3)C(=O)N(C)[C@H](C(=O)N(C)C)CC(=O)N(C)[C@@H](COC)C(=O)N[C@@H]([C@@H](C)CC)C(=O)N(C)CC(=O)N(C)[C@H]3CCCCCN(C3=O)[C@@H](Cc3ccc(F)cc3)C(=O)N(C)CC(=O)N[C@@H](CCc3cc(F)c(C(F)(F)F)c(F)c3)C(=O)N2C1" with human lung cancer strain NCI-H441. 0.0163
